Please go through the items and note down their CHLORIDE.
species on record: Rattus norvegicus; experiment: DrugMatrix - Regimen: Daily Repeat; type: toxicity, organism-based, Sprague-Dawley; design: regimen Daily Repeat, gender Male, age 6-8 weeks; settings: in vivo, po, 0 mg/kg, 120 h, tissue Plasma, route oral GAVAGE, dose level Control, time 5 day, […]
One number for each entry, in MEQ/L.

Provide each entry's CHLORIDE from the list below.
1. CCn1cc(C(=O)O)c(=O)c2cc(F)c(N3CCNCC3)nc21
2. OCCN1CCN(CCCN2c3ccccc3Sc3ccc(C(F)(F)F)cc32)CC1
3. COc1ncnc(NS(=O)(=O)c2ccc(N)cc2)c1OC
4. C#C[C@]1(O)CC[C@H]2[C@@H]3CCc4cc(O)ccc4[C@H]3CC[C@@]21C
5. CC(CCc1ccc(O)cc1)NCCc1ccc(O)c(O)c1 (centres undefined)

RESULT:
99.5
98.5
98.33
99.5
104

Provide each entry's CHLORIDE from the list below.
1. CN(CCOc1ccc(CC2SC(=O)NC2=O)cc1)c1ccccn1 (centres undefined)
2. CC(=O)Nc1nnc(S(N)(=O)=O)s1 [ACETAZOLAMIDE]
3. CC(C)Cc1ccc(CC(=O)O)cc1
4. CC[C@H](C)C(=O)O[C@H]1C[C@@H](C)C=C2C=C[C@H](C)[C@H](CC[C@@H]3C[C@@H](O)CC(=O)O3)[C@H]21

RESULT:
1. 97
2. 98.33
3. 100.5
4. 103

====

organism: Rattus norvegicus; assay: DrugMatrix - Regimen: Daily Repeat; assay type: toxicity, organism-based, Sprague-Dawley; parameters: regimen Daily Repeat, gender Male, age 6-8 weeks; details: in vivo, po, 0 mg/kg, 120 h, tissue Blood, route oral GAVAGE, dose level Control, time 5 day, vehicle 100 % WATER
METRIC_NAME: LYMPHOCYTE (%)
One number for each entry, in %.

Illustrative cases are given below, each with its answer.
MOLECULE	ASSAY_RESULT
CC(C)(C)NC[C@H](O)COc1nsnc1N1CCOCC1 [TIMOLOL]	92.17
CCN[C@@H](C)Cc1cccc(C(F)(F)F)c1 [DEXFENFLURAMINE]	83

Provide each entry's LYMPHOCYTE from the list below.
1. O=C(O)c1cc(=O)c2c(OCC(O)COc3cccc4oc(C(=O)O)cc(=O)c34)cccc2o1 [CROMOLYN]
2. Nc1ccc(S(=O)(=O)Nc2ncccn2)cc1 [SULFADIAZINE]
3. CC[C@H]1OC(=O)[C@H](C)[C@@H](O[C@H]2C[C@@](C)(OC)[C@@H](O)[C@H](C)O2)[C@H](C)[C@@H](O[C@@H]2O[C@H](C)C[C@H](N(C)C)[C@H]2O)[C@](C)(O)C[C@@H](C)CN(C)[C@H](C)[C@@H](O)[C@]1(C)O [AZITHROMYCIN]

RESULT:
1. 85.5
2. 83
3. 92.17

Provide each entry's LYMPHOCYTE from the list below.
1. CCCCCCCCCCCCCCCC[n+]1ccccc1.[Br-]
2. O=P1(N(CCCl)CCCl)NCCCO1 (stereo not drawn) [CYCLOPHOSPHAMIDE ANHYDROUS]
3. CNS(=O)(=O)Cc1ccc2[nH]cc(CCN(C)C)c2c1

RESULT:
1. 92.17
2. 90.33
3. 89.83

====

species: Rattus norvegicus; test: DrugMatrix - Regimen: Daily Repeat; type: toxicity, organism-based, Sprague-Dawley; parameters: regimen Daily Repeat, gender Male, age 6-8 weeks; conditions: in vivo, po, 100 mg/kg, 72 h, tissue Blood, route oral GAVAGE, dose level Low, time 3 day, vehicle .5 % CMC
Please go through the items and note down their MEAN CORPUSCULAR VOLUME.

Illustrative cases are given below, each with its answer.
COMPOUND	MEAN CORPUSCULAR VOLUME
Nc1nc2c(c(=O)[nH]1)N(C=O)C(CNc1ccc(C(=O)N[C@@H](CCC(=O)O)C(=O)O)cc1)CN2 (some centres undefined) [LEUCOVORIN]	62.83 fL
CC=Cc1ccc(O)c(OC)c1 [ISOEUGENOL]	65.23 fL
CC[C@]1(O)CC[C@H]2[C@@H]3CCC4=CCCC[C@@H]4[C@H]3CC[C@@]21C	61 fL

Please look at the following compound next.
QUERY: Look at this compound and give its reported MEAN CORPUSCULAR VOLUME. C#C[C@]1(O)CC[C@H]2[C@@H]3CCC4=Cc5oncc5C[C@]4(C)[C@H]3CC[C@@]21C [DANAZOL]
RESULT: 61.77 fL

====

species: Rattus norvegicus; experiment: DrugMatrix - Regimen: Daily Repeat; format: toxicity, organism-based, Sprague-Dawley; design: regimen Daily Repeat, gender Male, age 6-8 weeks; conditions: in vivo, po, 0 mg/kg, 120 h, tissue Plasma, route oral GAVAGE, dose level Control, time 5 day, vehicle 100 % WATER
METRIC_NAME: ALBUMIN
A bare number is not enough; add the unit after it.

Illustrative cases are given below, each with its answer.
COMPOUND	METRIC_NAME	ASSAY_RESULT
O=P1(N(CCCl)CCCl)NCCCO1 (stereo not given) [CYCLOPHOSPHAMIDE ANHYDROUS]	ALBUMIN	3.97 G/DL
CCN[C@@H](C)Cc1cccc(C(F)(F)F)c1 [DEXFENFLURAMINE]	ALBUMIN	3.73 G/DL
CCN(CC)CC#CCOC(=O)C(O)(c1ccccc1)C1CCCCC1 (stereo not given) [OXYBUTYNIN]	ALBUMIN	4.23 G/DL
CN1C2CCCC1CC(NC(=O)c1nn(C)c3ccccc13)C2 (stereo not given) [GRANISETRON]	ALBUMIN	4.07 G/DL

Please look at the following compound next.
QUERY: Look at this compound and give its reported ALBUMIN. CNS(=O)(=O)Cc1ccc2[nH]cc(CCN(C)C)c2c1
RESULT: 4.07 G/DL

====

species: Rattus norvegicus; test: DrugMatrix - Regimen: Daily Repeat; type: toxicity, organism-based, Sprague-Dawley; design: regimen Daily Repeat, gender Male, age 6-8 weeks; settings: in vivo, po, 0 mg/kg, 72 h, tissue Blood, route oral GAVAGE, dose level Control, time 3 day, vehicle .5 % CMC
Please go through the items and note down their BASOPHIL.
Answers are plain numbers, in %.

Illustrative cases are given below, each with its answer.
COMPOUND	UNIT_STRING	BASOPHIL
CC(C)(Sc1cc(C(C)(C)C)c(O)c(C(C)(C)C)c1)Sc1cc(C(C)(C)C)c(O)c(C(C)(C)C)c1 [PROBUCOL]	%	0
Nc1cccc(Cl)c1 [3-CHLOROANILINE]	%	0.62
C[C@@H]1CC[C@H]2[C@@H](C)C(=O)O[C@@H]3O[C@@]4(C)CC[C@@H]1[C@]32OO4 [ARTEMISININ]	%	0

Please look at the following compound next.
QUERY: Look at this compound and give its reported BASOPHIL. CC(=O)O[C@]1(C(C)=O)CC[C@H]2[C@@H]3C=C(Cl)C4=CC(=O)[C@@H]5C[C@@H]5[C@]4(C)[C@H]3CC[C@@]21C [CYPROTERONE ACETATE]
RESULT: 0

====

Please go through the items and note down their CREATININE.
organism: Rattus norvegicus; test: DrugMatrix - Regimen: Daily Repeat; assay type: toxicity, organism-based, Sprague-Dawley; set-up: regimen Daily Repeat, gender Male, age 6-8 weeks; conditions: in vivo, po, 0 mg/kg, 120 h, tissue Plasma, route oral GAVAGE, dose level Control, time 5 day, […]
One number for each entry, in mg/dL.

MOLECULE	ASSAY_RESULT
CC(CCc1ccc(O)cc1)NCCc1ccc(O)c(O)c1 (centres undefined)	0.47
CC(=O)Nc1nnc(S(N)(=O)=O)s1 [ACETAZOLAMIDE]	0.2
C#C[C@]1(O)CC[C@H]2[C@@H]3CCc4cc(O)ccc4[C@H]3CC[C@@]21C	0.37

Please look at the following molecule next.
QUERY: Look at this molecule and give its reported CREATININE. CN(CCOc1ccc(CC2SC(=O)NC2=O)cc1)c1ccccn1 (centres undefined)
RESULT: 0.16

====

organism: Rattus norvegicus; assay: DrugMatrix - Regimen: Daily Repeat; type: toxicity, organism-based, Sprague-Dawley; set-up: regimen Daily Repeat, gender Male, age 6-8 weeks; details: in vivo, po, 0 mg/kg, 72 h, tissue Blood, route oral GAVAGE, dose level Control, time 3 day, vehicle 100 % SALINE
Please go through the items and note down their ABSOLUTE EOSINOPHIL.
Numbers only, in CELLS/uL.

Illustrative cases are given below, each with its answer.
MOLECULE	UNIT_STRING	ABSOLUTE EOSINOPHIL
Oc1ccccc1O	CELLS/uL	65.67
Cc1cc(CC(=O)O)n(C)c1C(=O)c1ccc(Cl)cc1 [ZOMEPIRAC]	CELLS/uL	65.67
CCCc1nn(C)c2c(=O)[nH]c(-c3cc(S(=O)(=O)N4CCN(C)CC4)ccc3OCC)nc12	CELLS/uL	37

Please look at the following molecule next.
QUERY: Look at this molecule and give its reported ABSOLUTE EOSINOPHIL. CC(=O)OCC(CCn1cnc2cnc(N)nc21)COC(C)=O
RESULT: 37
